The measurements presented in this section are drawn from PubChem BioAssay.

Test: basal MM1S mitochondrial membrane potential changes, profiling panel, cell-based, JC-1 fluorescence, 24 h, 100 nL compound (AID 1170); further: test concentration not given here
Conditions: higher = more signal
compounds and their reported z-score
// print number alone

Reference set (10 entries):
CCCC[C@@H]1C[C@H]1[C@@H](NC(=O)c1ccccc1)c1ccccc1C(F)(F)F | -0.573
N#Cc1ccc(NN2C(C(O)CCc3ccccc3)C=CC3C(=O)N(c4ccccc4)C(=O)C32)cc1 (stereo not drawn) | 0.419
N#Cc1ccc(NN2C(C(O)c3ccc(I)cc3)C=CC3C(=O)N(c4ccccc4)C(=O)C32)cc1 (stereo not drawn) | -0.263
O=C1C2C=CC(C(O)C(c3ccccc3)c3ccccc3)N(Nc3ccc([N+](=O)[O-])cc3)C2C(=O)N1c1ccccc1 (stereo not drawn) | -1.44
COCCOC(=O)N1C(=O)[C@@]2(c3cc(C#CC4=CCCCC4)ccc31)[C@H](C(=O)NC[C@H](O)c1ccccc1)[C@H]1C(=O)O[C@H](c3ccccc3)[C@H](c3ccccc3)N1[C@@H]2c1ccc(OCCO)cc1 | -1.65
O=C(N1CCCCC1)[C@@]1(CCS(=O)(=O)c2ccccc2)N=C(c2ccc(OCCCO)cc2)O[C@H]1c1ccccc1 | -2.09
O=C1OCC=C[C@H]2OC34C=CCN(Cc5ccccc5)C(=O)[C@H]3N(CCCCCO)C(=O)[C@@H]4[C@@H]12 (stereo partly drawn) | 1.72
CC(C)(C)OC(=O)CC[C@@]1(C(=O)NCc2ccccc2)N=C(c2ccc(OCCCO)cc2)O[C@@H]1c1ccccc1 | -0.552
COc1ccc(NN2C(C(O)c3cc(OC)c(OC)c(OC)c3)C=CC3C(=O)N(C4CCCCC4)C(=O)C32)cc1 (stereo not drawn) | -1.78
C=C(CCCC)/C(=C/C[C@@H](OC(=O)c1ccncc1)c1ccc(CO)o1)c1cnc2ccccc2c1 | 1

We next turn to a different compound, shown below.
Using the record for CN1C2C=C(c3ccc(CO)cc3)C(C3C(=O)N(C(N)=O)C(=O)C32)C1c1cccs1 (stereo not drawn) , report its z-score.
0.491

---

Tested on: Wnt5a (protein binding on small-molecule microarray)
Experiment: Wnt5a binders on small-molecule microarray, primary screen, biophysical, 635/667 nm fluorescence (AID 1142);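 further: fluorescence read at 667 nm with signal to noise per printed feature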
Conditions: 635 nm fluorescence, higher = more signal
Quantity name: composite z-score
// print number alone

Reference set (3 entries):
[N-]=[N+]=NCc1ccccc1[C@H]1OC(c2ccc(OCCCO)cc2)=N[C@@]1(Cc1ccccc1N=[N+]=[N-])C(=O)NCc1ccccc1 | 0.928
O=[N+]([O-])c1ccc(C[n+]2ccc3ccc(O)cc3c2)o1 | 0.465
O=C(NCC(F)(F)F)[C@@H]1c2ccccc2C(=O)N(Cc2ccccc2Cl)[C@H]1c1ccc(CO)cc1 | -0.234

We next turn to a different compound, shown below.
Recorded composite z-score for CCOC(=O)C1=CCC(c2cccc3ccccc23)N(S(=O)(=O)c2ccc(C)cc2)C1 (configuration not stated) with Wnt5a (protein binding on small-molecule microarray), please?
0.204

---

Experiment: cell viability in Huh7 cells, primary screen, cytotoxicity control for HCV replication inhibitor project, CellTiter-Glo luminescence, basal, 48 h (AID 1143);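 further: Huh7 hepatoma cells carrying a hepatitis C replication reporter with no stimulus; test concentration not given here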
Conditions: Huh7 HCV replicon, higher = more signal, called active from +8 up or from −8 down
Cut-off -0.8 on z-score, inclusive. At or above means condition met; below means condition not met.

For orientation, consider the following solved cases.
CCCN1C(=O)[C@@]2(CCS(=O)(=O)c3ccccc3)N=C(c3ccc(OCCCO)cc3)O[C@H]2c2ccccc21 | condition not met
CO[C@@H]1COC(=O)[C@H](COCc2ccccc2)NC(=O)CC=C[C@@H](C)[C@H](OC)COC(=O)[C@H](COCc2ccccc2)NC(=O)CC=C[C@H]1C | condition not met
O=C1NC(=O)C2C1C=CC(C(O)C=Cc1ccc([N+](=O)[O-])cc1)N2Nc1ccccn1 (stereo not given) | condition met
COc1cc2c(cc1OC)CN(C(=O)[C@@H]1[C@H]3C(=O)O[C@H](c4ccccc4)[C@H](c4ccccc4)N3[C@H](c3ccccc3OCCO)[C@@]13C(=O)Nc1ccccc13)CC2 | condition not met
O=C1O[C@@H](c2ccccc2)[C@@H](c2ccccc2)N2[C@@H](c3ccccc3OCCO)[C@]3(C(=O)Nc4ccc(C#CC5=CCCCC5)cc43)[C@@H](C(=O)O)[C@H]12 | condition not met
O=C1OCCC=C[C@H]2OC34C=CCN(Cc5ccccc5)C(=O)[C@H]3N(CCO)C(=O)[C@@H]4C12 (stereo not given in full) | condition not met

Determine whether measured z-score meets or exceeds -0.8 for `CCN1C(C)=C(C(=O)OC)[C@@H](c2ccccc2)N2C(=O)[C@@]3(C(=O)OC)O[C@@]12[C@@H]1C(=O)N(C)C(=O)[C@@H]13`
condition met

Determine whether measured z-score meets or exceeds -0.8 for `O=C/C=C/c1ccccc1Cl`
condition met

---

System: Inhibin beta A chain (activin A)
Assay: INHBA (activin A) binders on microarrays, primary screen, biochemical, small-molecule microarray, 635 nm fluorescence scan (AID 1107);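 further: mouse activin A protein probed at 4.33 µg/mL on printed slides; score merges bound-protein fluorescence near 667 nm with spot signal-to-noise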
Conditions: small-molecule microarray binding, higher = more signal
Quantity name: composite z-score
// print number alone

Recorded composite z-score for `O=C1O[C@H](c2ccccc2)[C@H](c2ccccc2)N2[C@H]1[C@@H](C(=O)Nc1nc3ccccc3s1)[C@]1(C(=O)Nc3ccc(C#CC4=CCCCC4)cc31)[C@H]2c1ccccc1OCCO` with Inhibin beta A chain (activin A), please?
0.345

Recorded composite z-score for `COC(=O)[C@@]1(Cc2ccc(OC)cc2)[C@H]2c3cc(C(=O)N(C)C)n(CCc4ccc(OC)c(Br)c4)c3C[C@H]2CN1C(=O)c1ccccc1` with Inhibin beta A chain (activin A), please?
0.463

---

Target: Follistatin-related protein 3 (Homo sapiens)
Assay: FSTL3 binders on small-molecule microarrays, primary screen, biochemical, small-molecule microarray, 635 nm fluorescence (AID 1105);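 further: score merges emission near 667 nm and signal to noise per printed spot across three slides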
Conditions: FSTL3 binding, higher = more signal
compounds and their reported composite z-score
// print number alone

[N-]=[N+]=NCc1ccccc1C[C@]1(C(=O)N2CCCCC2)N=C(c2ccc(OCCCO)cc2)O[C@H]1c1ccccc1CN=[N+]=[N-] | 0.556
CC(C)(C)OC(=O)CC[C@]1(C(=O)NCCN2CCOCC2)N=C(c2ccc(OCCCO)cc2)O[C@H]1c1ccccc1CN=[N+]=[N-] | -0.49

Using the record for `O=C1c2ccccc2[C@](Cc2ccccc2I)(C(=O)NCc2ccccc2)[C@H](c2ccc(CO)cc2)N1Cc1ccccc1C(F)(F)F` , report its composite z-score.
-1.27

Using the record for CC(c1ccccc1)C(O)C1C=CC2C(=O)N(C)C(=O)C2N1N(c1ccccc1)c1ccccc1 (centres undefined) , report its composite z-score.
0.0656

Using the record for C=CCC(OC(C)=O)[C@@H]1[C@@H](N(Cc2cccc3ccccc23)C(=O)Cc2ccc(F)cc2)c2cc(OCCCO)ccc2N1C(=O)Cc1ccc2ccccc2c1 (some centres undefined) , report its composite z-score.
-0.0987

Using the record for `COC(=O)C(CC#Cc1ccc2c(c1)[C@]1(C(=O)N2)[C@H](C(=O)N2CCCCCCC2)[C@H]2C(=O)O[C@H](c3ccccc3)[C@H](c3ccccc3)N2[C@@H]1c1ccc(O)cc1)C(=O)OC` , report its composite z-score.
-0.635

Using the record for `[N-]=[N+]=NCc1ccccc1[C@H]1OC(c2ccc(OCCCO)cc2)=N[C@@]1(Cc1ccccc1N=[N+]=[N-])C(=O)NCc1ccccc1` , report its composite z-score.
0.62

Using the record for `CO[C@]12C=C(Br)[C@@H](C[C@@H]1c1ccccc1)[C@@]1(CO1)C2=O` , report its composite z-score.
0.615

Using the record for `O=C(O)[C@@H]1Cc2c([nH]c3ccccc23)[C@@H](c2ccccc2)N1` , report its composite z-score.
0.518

Using the record for `CCC(=O)[C@]12O[C@@]3([C@@H]4C(=O)OCC[C@@H]41)N(CC)C(C)=C(C(=O)OC)[C@@H](c1ccccc1)N3C2=O` , report its composite z-score.
0.599

Using the record for Cc1cc(C)c(C(O)C2C=CC3C(=O)N(C)C(=O)C3N2N2CCCCC2)c(C)c1 (centres undefined) , report its composite z-score.
1.35

Using the record for C[C@@H]1NC(=O)[C@H](Cc2ccccc2)NC(=O)[C@@]23C(=O)N[C@@H](Cc4ccccc4)C2[C@H](C)[C@@]2(C)O[C@H]2C3/C=C/C/C=C\CNC1=O (some centres undefined) , report its composite z-score.
-0.0037

---

Target: Fibroblast growth factor 2 (Homo sapiens)
Test: FGF2 binders on small-molecule microarrays, primary screen, biochemical, small-molecule microarray, 635/667 nm fluorescence (AID 1133)
Details: small-molecule microarray binding, FGF2, fluorescence 635/667; higher = more signal
Quantity name: composite z-score
// print number alone

COCCOC(=O)N1C(=O)[C@@]2(c3cc(C#CC4(O)CCCCCC4)ccc31)[C@H](C(=O)N1CCCCCCC1)[C@H]1C(=O)O[C@H](c3ccccc3)[C@H](c3ccccc3)N1[C@@H]2c1ccc(O)cc1 | 0.536

Using the record for `Cc1ccc(S(=O)(=O)N2[C@@H](c3ccccc3)C(C(=O)O)=CC[C@H]2c2ccccc2)cc1` , report its composite z-score.
-0.158

Using the record for `COCCOC(=O)N1C(=O)[C@@]2(c3cc(C#CCCO)ccc31)[C@H](c1ccc(O)cc1)N1[C@H](c3ccccc3)[C@H](c3ccccc3)OC(=O)[C@H]1[C@@H]2C(=O)Nc1nc2ccccc2s1` , report its composite z-score.
0.955

Using the record for `CC(C)CN1C(=O)[C@@]2(Cc3ccccc31)c1ccccc1C(=O)N(C1CCCCC1)[C@H]2c1ccc(CO)cc1` , report its composite z-score.
-0.914
